Molecular target: PolyNic (polygenomic nicotinamidase)
Construct: 588 bp PCR product in pET-46 Ek/LIC, expressed in E. coli Rosetta 2 (DE3); dimer
Test: HPLC nicotinamidase assay, Morrison fit, NAM as substrate (Ki […] with PZA as substrate)
MEASUREMENT KIND: Ki

Exercise: Endpoint output: Ki of "O=Cc1cccnc1" . Value?
Solution: 0.18 µM
